# Target system: human NMUR2 (human, UniProt Q9GZQ4 1-415)
# Sequence (Q9GZQ4 whole entry): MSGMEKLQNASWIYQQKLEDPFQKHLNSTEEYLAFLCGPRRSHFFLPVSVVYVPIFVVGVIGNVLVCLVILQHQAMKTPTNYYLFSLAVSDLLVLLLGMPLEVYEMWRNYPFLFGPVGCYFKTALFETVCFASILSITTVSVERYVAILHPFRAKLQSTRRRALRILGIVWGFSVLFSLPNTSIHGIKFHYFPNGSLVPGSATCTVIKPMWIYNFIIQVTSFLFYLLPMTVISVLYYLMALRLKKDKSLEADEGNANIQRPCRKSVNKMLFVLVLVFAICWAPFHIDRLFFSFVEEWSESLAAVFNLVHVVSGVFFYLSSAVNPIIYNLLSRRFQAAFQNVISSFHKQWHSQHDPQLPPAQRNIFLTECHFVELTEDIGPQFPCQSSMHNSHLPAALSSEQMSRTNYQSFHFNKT
# Protocol notes: cell-based or functional assay
No end group written: not given here. *: point of attachment. (PEG)2 40 kDa = branched PEG of 40 kDa linked via the Cys side-chain thiol (code C2 = Cys(PEG)2 40 kDa); Cholesteroyl = cholesterol linked to a cysteine residue via the side-chain thiol; Succinimide(1-Et,3-yl) = CCN1C(=O)CC(*)C1=O
Param label: returns YES when EC50 (FLIPR) < 5 nM, returns NO otherwise, including exact equality.

Binder	Assigned category
Ac-C(Succinimide(1-Et,3-yl))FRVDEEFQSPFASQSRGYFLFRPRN-NH2 [NMU8]	NO
Ac-C(Cholesteroyl)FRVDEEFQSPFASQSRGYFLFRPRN-NH2 [NMU10]	NO
Ac-C((PEG)2 40 kDa)GYFLFRPRN-NH2 [NMU7]	NO
Ac-C(Succinimide(1-Et,3-yl))ASQSRGYFLFRPRN-NH2 (SMILES CCN1C(=O)CC(SC[C@H](NC(C)=O)C(=O)N[C@@H](C)C(=O)N[C@@H](CO)C(=O)N[C@@H](CCC(N)=O)C(=O)N[C@@H](CO)C(=O)N[C@@H](CCCNC(=N)N)C(=O)NCC(=O)N[C@@H](Cc2ccc(O)cc2)C(=O)N[C@@H](Cc2ccccc2)C(=O)N[C@@H](CC(C)C)C(=O)N[C@@H](Cc2ccccc2)C(=O)N[C@@H](CCCNC(=N)N)C(=O)N2CCC[C@H]2C(=O)N[C@@H](CCCNC(=N)N)C(=O)N[C@@H](CC(N)=O)C(N)=O)C1=O) [NMU17]	YES
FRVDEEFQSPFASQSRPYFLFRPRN-NH2 [NMU4]	YES
Ac-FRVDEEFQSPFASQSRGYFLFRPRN-NH2 [NMU2]	YES
